Would you mind telling me the reported DR/DR LNA of each entry?
assay: Probe fluorescence ratio response to linolenic acid relative to ADIFAB2; assay type: binding; conditions: response relative to ADIFAB2
Numbers only.

Example molecules with recorded DR/DR LNA:
Could you please provide reported DR/DR LNA for 115W, 72A (protein, listed as Rattus norvegicus, PEPTIDE (1)...(131) wild-type rat intestinal fatty acid binding protein) AFDGTWKVDRNENYEKFMEKMGINVVKRKLGAHDNLKLTITQEGNKFTVKESSNFRNIDVVFELGVDFAYSAADGTELTGTWTMEGNKLVGKFKRVDNGKELIAVREISGNELIWTYTYEGVEAKRIFKKE ? Thanks!
1.396

Could you please provide reported DR/DR LNA for 106W, 72A (protein, listed as Rattus norvegicus, PEPTIDE (1)...(131) wild-type rat intestinal fatty acid binding protein) AFDGTWKVDRNENYEKFMEKMGINVVKRKLGAHDNLKLTITQEGNKFTVKESSNFRNIDVVFELGVDFAYSAADGTELTGTWTMEGNKLVGKFKRVDNGKELIAVWEISGNELIQTYTYEGVEAKRIFKKE ? Thanks!
1.03

Could you please provide reported DR/DR LNA for 14I 18L 31W 73V 117G 72A (protein, listed as Rattus norvegicus, PEPTIDE (1)...(131) wild-type rat intestinal fatty acid binding protein) AFDGTWKVDRNENIEKFLEKMGINVVKRKLWAHDNLKLTITQEGNKFTVKESSNFRNIDVVFELGVDFAYSAVDGTELTGTWTMEGNKLVGKFKRVDNGKELIAVREISGNELIQTGTYEGVEAKRIFKKE ? Thanks!
1.960

Could you please provide reported DR/DR LNA for 115V2, 72A (protein, listed as Rattus norvegicus, PEPTIDE (1)...(131) wild-type rat intestinal fatty acid binding protein) AFDGTWKVDRNENYEKFMEKMGINVVKRKLGAHDNLKLTITQEGNKFTVKESSNFRNIDVVFELGVDFAYSAADGTELTGTWTMEGNKLVGKFKRVDNGKELIAVREISGNELIVTYTYEGVEAKRIFKKE ? Thanks!
0.93

Could you please provide reported DR/DR LNA for 14K, 72A (protein, listed as Rattus norvegicus, PEPTIDE (1)...(131) wild-type rat intestinal fatty acid binding protein) AFDGTWKVDRNENKEKFMEKMGINVVKRKLGAHDNLKLTITQEGNKFTVKESSNFRNIDVVFELGVDFAYSAADGTELTGTWTMEGNKLVGKFKRVDNGKELIAVREISGNELIQTYTYEGVEAKRIFKKE ? Thanks!
0.92

Now consider the entry below.
Could you please provide reported DR/DR LNA for 14L 72A (protein, listed as Rattus norvegicus, PEPTIDE (1)...(131) wild-type rat intestinal fatty acid binding protein) AFDGTWKVDRNENLEKFMEKMGINVVKRKLGAHDNLKLTITQEGNKFTVKESSNFRNIDVVFELGVDFAYSAADGTELTGTWTMEGNKLVGKFKRVDNGKELIAVREISGNELIQTYTYEGVEAKRIFKKE ? Thanks!
0.867
